B1: TPR 5TU (parent)
chain: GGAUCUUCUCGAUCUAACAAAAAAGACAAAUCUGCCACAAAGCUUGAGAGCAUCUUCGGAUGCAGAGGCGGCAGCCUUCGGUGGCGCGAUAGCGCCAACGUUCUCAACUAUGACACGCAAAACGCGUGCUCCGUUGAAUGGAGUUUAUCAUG

# Variants of: B1
# Protocol Details: polymerase ribozyme fitness, log enrichment relative to wild type (log ratio); higher = more active; in vitro selection for triplet polymerase activity
Fewer inactive variants are shown than the library holds.
Kindly supply the reported polymerase ribozyme fitness (log ratio) values for the records listed here.

The recorded polymerase ribozyme fitness (log ratio) for entry A52C A73G A138G equals ≤ -4.2

The recorded polymerase ribozyme fitness (log ratio) for entry A26U A41C U44A G59A G126U G128A A137G equals ≤ -4.2

The recorded polymerase ribozyme fitness (log ratio) for entry G11C A49C U53G G141A equals ≤ -4.2

The recorded polymerase ribozyme fitness (log ratio) for entry A49C C75G C87A equals ≤ -4.2

The recorded polymerase ribozyme fitness (log ratio) for entry U6G A73U G81C A98C C99U U144C equals -3.62

The recorded polymerase ribozyme fitness (log ratio) for entry C35U A97G U134G U144G equals -2.34

The recorded polymerase ribozyme fitness (log ratio) for entry G94C U151A equals -3.85

The recorded polymerase ribozyme fitness (log ratio) for entry U4C C5U A23C A47C C79A C85G U90C G117U G152U equals ≤ -4.2

The recorded polymerase ribozyme fitness (log ratio) for entry U53G C54G C85A U134A equals ≤ -4.2

The recorded polymerase ribozyme fitness (log ratio) for entry U33C U56G C93U equals ≤ -4.2

The recorded polymerase ribozyme fitness (log ratio) for entry A24U A52C C87A equals ≤ -4.2

The recorded polymerase ribozyme fitness (log ratio) for entry C14A A40U C76U U78G G84A C103G G128A G141C equals ≤ -4.2

The recorded polymerase ribozyme fitness (log ratio) for entry C87G A97U G117C equals ≤ -4.2

The recorded polymerase ribozyme fitness (log ratio) for entry C76U C93U equals -2.28

The recorded polymerase ribozyme fitness (log ratio) for entry U9A A26U G92U A142U equals ≤ -4.2

The recorded polymerase ribozyme fitness (log ratio) for entry A21G G50U G92U A147C equals -0.875

The recorded polymerase ribozyme fitness (log ratio) for entry U15G A24C G59C G68C C79G G81U C95A C132U equals ≤ -4.2

The recorded polymerase ribozyme fitness (log ratio) for entry G88U C95G U144C equals ≤ -4.2

The recorded polymerase ribozyme fitness (log ratio) for entry `G124C` equals -0.922

The recorded polymerase ribozyme fitness (log ratio) for entry G11U G84A equals -0.536

The recorded polymerase ribozyme fitness (log ratio) for entry U7G C75G G84A G141A equals ≤ -4.2

The recorded polymerase ribozyme fitness (log ratio) for entry C10U G80C G84U C87A C105A U151G equals ≤ -4.2

The recorded polymerase ribozyme fitness (log ratio) for entry A17C U55G C57A G59C C85A A115G A119U equals -2.46

The recorded polymerase ribozyme fitness (log ratio) for entry C96U U104G equals -1.59

The recorded polymerase ribozyme fitness (log ratio) for entry G42A A47C U55A C85U equals ≤ -4.2

The recorded polymerase ribozyme fitness (log ratio) for entry G126U U135C equals -1.61

The recorded polymerase ribozyme fitness (log ratio) for entry C95U A119U equals -0.544

The recorded polymerase ribozyme fitness (log ratio) for entry C10U A17C C38U G58C C96G equals -3.69

The recorded polymerase ribozyme fitness (log ratio) for entry C8U G74U C79U C93A G143U equals ≤ -4.2

The recorded polymerase ribozyme fitness (log ratio) for entry C5G C99A equals -0.989

The recorded polymerase ribozyme fitness (log ratio) for entry C54U C96U equals -0.41

The recorded polymerase ribozyme fitness (log ratio) for entry C36U A60G C87A G88C G141C equals ≤ -4.2

The recorded polymerase ribozyme fitness (log ratio) for entry C5U A16C A17U C27U A49C U55G equals ≤ -4.2

The recorded polymerase ribozyme fitness (log ratio) for entry A40G A97G equals -1.8

The recorded polymerase ribozyme fitness (log ratio) for entry U4A U55A A64C equals ≤ -4.2

The recorded polymerase ribozyme fitness (log ratio) for entry C54G C76A C93G C123U equals ≤ -4.2

The recorded polymerase ribozyme fitness (log ratio) for entry C5A C14G A19G C36A U102G C132G equals ≤ -4.2

The recorded polymerase ribozyme fitness (log ratio) for entry G59C A60G C85A equals -1.88

The recorded polymerase ribozyme fitness (log ratio) for entry G74C A147C equals -4.06

The recorded polymerase ribozyme fitness (log ratio) for entry C5G G141C equals -0.606

The recorded polymerase ribozyme fitness (log ratio) for entry A21C C72G G124C equals ≤ -4.2

The recorded polymerase ribozyme fitness (log ratio) for entry C96U C99A G133C G141A equals ≤ -4.2

The recorded polymerase ribozyme fitness (log ratio) for entry C54A C85U C105U A142C equals -2.12

The recorded polymerase ribozyme fitness (log ratio) for entry A12G U55A C76A C93A A120G equals -3.73

The recorded polymerase ribozyme fitness (log ratio) for entry G71C A73C C108U U146C C149G equals ≤ -4.2

The recorded polymerase ribozyme fitness (log ratio) for entry C54A C87G A98G equals ≤ -4.2
